# Tested on: SK-MEL-5 melanoma
# EXPERIMENT: NCI tumour cell line growth inhibition, 48 h
Binary classification by TGI, with 20 µM as an inclusive lower bound for met; all other cases are not met.

{"columns": ["COMPOUND", "CLASS NAME"],
 "data": [
  ["N=c1ccn2c(n1)O[C@@H]1[C@@H](O)[C@H](CO)O[C@@H]12", "met"],
  ["COc1ccc(Cn2c(Br)c3c(c2-c2cc(OC)c(OC)c(OC)c2)CCc2sc(NC(C)=O)nc2-3)cc1", "met"],
  ["N=c1oc2c(Cl)cc(Cl)cc2cc1C(=O)Nc1ccccn1", "met"],
  ["COc1cc(OC)cc(-c2cncn2-c2ccc(-c3nc4cc(OC)c(OC)c(OC)c4s3)cc2)c1", "met"],
  ["Cc1cc(N=Nc2ccc(N=Nc3c(O)c(S(=O)(=O)O)cc4cc(S(=O)(=O)O)ccc34)cc2C)ccc1N=Nc1ccc2cc(S(=O)(=O)O)cc(S(=O)(=O)O)c2c1", "met"],
  ["CCOC1SC(SC)=NN1C(=O)C(OC(C)=O)C(OC(C)=O)C(OC(C)=O)C(OC(C)=O)C(=O)N1N=C(SC)SC1OCC (centres undefined)", "met"]
]}

Is it the case that COC(=O)C1C2CCCN2OC1(C)CO (centres undefined) has TGI reaching or exceeding 20 µM? met

Is it the case that CC(C)=CCC[C@H](C)[C@H]1CC[C@@H](C)c2cc(O)c(C)cc21 has TGI reaching or exceeding 20 µM? met

Is it the case that CC[C@]12C=CCN3CCC4(c5cc([C@@]6(C(=O)OC)CC7CN(CCc8c6[nH]c6ccccc86)C[C@@H]6CCC[C@H]76)c(OC)cc5N(C)C4[C@](O)(C(=O)OC)C1OC(C)=O)C32 (some centres undefined) has TGI reaching or exceeding 20 µM? not met

Is it the case that Oc1cc2ccccc2cc1-c1n[nH]c(=S)n1-c1ccc(Cl)cc1 has TGI reaching or exceeding 20 µM? met

Is it the case that COc1c(O)cc(C(=O)O[C@@H]2Cc3c(O)cc(O)cc3O[C@@H]2c2cc(O)c(O)c(O)c2)cc1O has TGI reaching or exceeding 20 µM? met

Is it the case that CC1OC(OC2CC(O)(C(=O)CO)Cc3c(O)c4c(c(O)c32)C(=O)c2ccccc2C4=O)CC(N)C1O (centres undefined) has TGI reaching or exceeding 20 µM? not met

Is it the case that CCN(CC)CC(O)C1CCC(c2ccccc2)CC1 (centres undefined) has TGI reaching or exceeding 20 µM? met

Is it the case that O=C1OC2C(O)C(=O)OC2C1O (centres undefined) has TGI reaching or exceeding 20 µM? met

Is it the case that O=C(CCl)Nc1ccc2c(c1)C(=O)c1ccc(NC(=O)CCl)cc1C2=O has TGI reaching or exceeding 20 µM? not met

Is it the case that CCCCCCCC/C=C/CCCCCCCC1CC(O)C(=O)O1 (centres undefined) has TGI reaching or exceeding 20 µM? met

Is it the case that CC(NC(=O)C(N)CC(=O)O)NC(=O)N1CCCC1 (centres undefined) has TGI reaching or exceeding 20 µM? met

Is it the case that O=C1C(N2C(=O)c3ccccc3C2=O)CN1C(COCc1ccccc1)c1ccc(OCc2ccccc2)cc1 (centres undefined) has TGI reaching or exceeding 20 µM? met

Is it the case that O=C1C[C@H]2[C@H](c3ccc(Br)cc3)[C@H]3C(=O)c4ccccc4NC(=O)[C@@H]3[C@@]2(O)c2ccccc2N1 has TGI reaching or exceeding 20 µM? met

* * *

# Test system: U251 CNS
# EXPERIMENT: NCI tumour cell line growth inhibition, 48 h
Attribute: TGI

A selection of reference data follows.
{"columns": ["COMPOUND", "REPORTED MEASUREMENT"],
 "data": [
  ["BrC12c3ccccc3Sc3ccccc3C1(Br)c1ccccc12 (configuration not stated)", "33.7 µM"],
  ["Cc1c2cccc-2c(OCCO)cc2c1[nH]c1ccccc12", "3.78 µM"]
]}

Fill in reported TGI for this entry: CC(NC(=O)C(N)CC(=O)O)NC(=O)N1CCCC1 (configuration not stated) > 100 µM

Fill in reported TGI for this entry: CC(=O)Nc1sc2c(c1-c1nc3ccccc3s1)CNC2 30.3 µM

* * *

# System: SK-OV-3 ovarian
# EXPERIMENT: NCI tumour cell line growth inhibition, 48 h
PROPERTY MEASURED: TGI

{"columns": ["COMPOUND", "REPORTED MEASUREMENT"],
 "data": [
  ["S=C1SC(c2ccc(Cl)cc2)(c2ccc(Cl)cc2)c2ccccc21", "> 100 µM"],
  ["Cc1ccc(C)c(NC(=O)C(Cc2c[nH]c3ccccc23)NC(=O)OCc2ccccc2)c1 (stereo unspecified)", "50.1 µM"],
  ["C=C1N(C)c2ccc(Cl)cc2C1(C)C", "65.4 µM"],
  ["CCCCCCCC/C=C/CCCCCCCC1CC(O)C(=O)O1 (stereo unspecified)", "> 100 µM"],
  ["COc1cccc(-n2c(N)c(-c3nc4cc(C(F)(F)F)ccc4s3)c3ccc([N+](=O)[O-])cc3c2=O)c1", "> 100 µM"],
  ["COc1cc(/C=C(\\C#N)c2ccccn2)cc(Br)c1O", "> 100 µM"],
  ["O=C(CCl)Nc1ccc2c(c1)C(=O)c1ccc(NC(=O)CCl)cc1C2=O", "7.01 µM"],
  ["Cc1cc(C#N)c(Nc2c(C)cccc2[N+](=O)[O-])s1", "> 100 µM"]
]}

Name the recorded TGI of O=C(/C=C/c1cccnc1)c1ccccc1O , assay system SK-OV-3 ovarian. > 100 µM

Name the recorded TGI of COC(=O)NN1C(=O)C(=P(c2ccccc2)(c2ccccc2)c2ccccc2)C(C(=O)OC)=C1C , assay system SK-OV-3 ovarian. > 100 µM

Name the recorded TGI of CN1CCCCC1CCN1c2ccccc2Sc2ccc(S(C)=O)cc21 (stereo unspecified) , assay system SK-OV-3 ovarian. > 100 µM

* * *

# System: IGROV1 ovarian
# EXPERIMENT: NCI tumour cell line growth inhibition, 48 h; in the data active = GI50 below about 0.43 µM; inactive = the rest
The reply should name one outcome from active, inactive

Some solved entries appear below for comparison.
{"columns": ["COMPOUND", "CLASS NAME"],
 "data": [
  ["COc1ccc(Nc2ncccc2C(=O)NCc2cn(Cc3cccc(Oc4ccccc4)c3)nn2)cc1", "inactive"],
  ["CSc1nc2c(c(=O)[nH]1)C(c1ccc(Cl)cc1)C1=C(N2)/C(=C/c2ccc(Cl)cc2)CNC1 (stereo not given)", "inactive"],
  ["S=C(N/N=C(/c1ccccc1)c1ccccn1)Nc1cccc(Cl)c1", "active"],
  ["COc1cc(NC(N)=NCCC(C)(C)c2ccc(C(F)(F)F)cc2)ncc1C#N", "inactive"],
  ["COc1ccc(Cn2c(Br)c3c(c2-c2cc(OC)c(OC)c(OC)c2)CCc2sc(NC(C)=O)nc2-3)cc1", "inactive"],
  ["Nc1nc2c(c3cnccc13)C(c1cccc(Cl)c1)Cc1cnccc1-2 (stereo not given)", "inactive"],
  ["N=c1ccn2c(n1)O[C@@H]1[C@@H](O)[C@H](CO)O[C@@H]12", "inactive"],
  ["CC(C)[C@@H]1CC[C@@H]2[C@@H]1[C@H](OC(=O)/C=C/c1ccccc1)[C@]1(C(C)C)C[C@@H](OC(=O)CO)[C@@]2(C)O1", "inactive"],
  ["Cc1ccc(S(=O)(=O)n2cc(-c3nnnn3-c3ccc(Cl)cc3)c(=O)c3ccccc32)cc1", "inactive"],
  ["CC([O-])C(=O)[O-].NCC1CCC1CN.[Pt+4] (stereo not given)", "inactive"]
]}

// outcome(item) with item = COc1cc(-c2cc(CCC(=O)Nc3ccccc3[N+](=O)[O-])n(-c3ccc([N+](=O)[O-])cc3[N+](=O)[O-])n2)ccc1O inactive

// outcome(item) with item = CC[C@]12CCCN3CC[C@]4(C(=C(C(=O)OC)C1)Nc1ccccc14)[C@@H]32 inactive

// outcome(item) with item = COc1cc2c3c(c4c5ccccc5[nH]c4c2c(OC)c1OC)C(=O)N(CCN1CCCCC1)C3=O inactive

// outcome(item) with item = COc1ccc(/C=C/C(=O)c2ccc(Nc3ccnc4cc(Cl)ccc34)cc2)cc1 inactive

// outcome(item) with item = Oc1cc2ccccc2cc1-c1n[nH]c(=S)n1-c1ccc(Cl)cc1 inactive

* * *

# Tested on: SF-539 CNS
# EXPERIMENT: NCI tumour cell line growth inhibition, 48 h; in the data active = GI50 below about 0.43 µM; inactive = the rest
The reply should name one outcome from active, inactive

Some solved entries appear below for comparison.
{"columns": ["STRUCTURE NOTATION", "CLASS NAME"],
 "data": [
  ["CC(=O)Nc1sc2c(c1-c1nc3ccccc3s1)CNC2", "inactive"],
  ["C[C@@]1(N2C(=O)OC[C@@H]2c2ccccc2)C(=O)N([C@H](CC(=O)N2CCC(N3CCCCC3)CC2)C(=O)NCc2cccc(C(F)(F)F)c2)[C@@H]1/C=C/c1ccccc1", "inactive"],
  ["COc1ccc(Nc2ncccc2C(=O)NCc2cn(Cc3cccc(Oc4ccccc4)c3)nn2)cc1", "inactive"]
]}

# evaluate next
// outcome(item) with item = O=C1c2cccnc2C(=O)c2c1c(C(=O)OCCN1CCOCC1)c1ccccn21 active
